experiment: Rat pharmacokinetics of Compound 12; assay type: in vivo, SD rats; conditions: SD, plasma, PO, 10 mg/kg
metric.name: half-life (min)
Response body: numeric value in min, unit text excluded.

Inquiry: Give the reported value of half-life for this record: "CCCC(=O)OC[C@H]1O[C@@](C#N)(n2ccc(N)nc2=O)[C@@H](O)[C@@H]1O"
Reply text: 150

====

experiment: Pharmacokinetics of Compounds 16, 22 and 23; type: in vivo, SCID/mice; conditions: SCID, mouse, plasma, 150 mg/kg; PO/150 mpk
This listing pairs compounds with measured Cmax.
Response body: numeric value in µM, unit text excluded.

Inquiry: Give the reported value of Cmax for this record: CCCC(=O)OC[C@H]1O[C@@H](n2cccnc2=O)[C@H](OC(=O)CCC)[C@@H]1OC(=O)CCC [Compound 22]
Reply text: 4.4

More entries:
Inquiry: Give the reported value of Cmax for this record: CC(C)C(=O)OC[C@H]1O[C@@H](n2cccnc2=O)[C@H](OC(=O)C(C)C)[C@@H]1OC(=O)C(C)C [Compound 23]
Reply text: 30.7
